# System: P. falciparum 3D7 growth, pLDH absorbance
# assay remarks: blood-stage malaria parasite growth potency – strain 3D7, dose response (AID 2305)
# IC50 values compiled below
Report the value in nM with no unit label.

Cc1cc(N[C@@H](CC(C)C)C(=O)NC2CCCC2)nc(NCC2CCCCC2)n1 = 860
O=C(Nc1ccc(OC2CCN(Cc3ccsc3)C2)c(Cl)c1)c1ccc2ncccc2c1 (stereo not given) = 970
COc1cc2nc(Nc3ccc(N4CCOCC4)cc3)nc(N)c2cc1OC = 870
COc1cccc(-c2cnc(N)c(-c3nc4ccc(F)cc4[nH]3)c2)c1 = 850

Attention now shifts to the item below.
Q: Write down the reported IC50 (system: P. falciparum 3D7 growth, pLDH absorbance) of CCN(CC)Cc1cc(NC(=O)c2ccccc2O)ccc1Oc1ccc(Cl)cc1
Ans: 830
